Test system: PCSK9 mRNA
Assay type: cell-based, human
Conditions: Hep3B cells, 100 nM, relative to untreated control cells
Strand notation (5' to 3'): a small letter for the sugar, then the base; units joined by * are phosphorothioate-linked, units joined directly phosphodiester-linked; [ ] holds rarer units or linkages, { } end groups; capitals alone tell only the bases. e = 2'-O-(2-methoxyethyl) (MOE); [5mC] = 5-methylcytosine; d = 2'-deoxy (DNA)
experimental endpoint: % Inhibition Range

1. 400368 (antisense e[5mC]*eG*dG*d[5mC]*dT*d[5mC]*d[5mC]*dG*dG*d[5mC]*dA*dG*e[5mC]*eA) [compound 400368] | 10-20%
2. 400370 (antisense eG*e[5mC]*d[5mC]*dG*dG*d[5mC]*dT*d[5mC]*d[5mC]*dG*dG*d[5mC]*eA*eG) [compound 400370] | 10-20%
3. 400350 (antisense e[5mC]*e[5mC]*d[5mC]*dT*d[5mC]*dA*d[5mC]*d[5mC]*d[5mC]*d[5mC]*d[5mC]*dA*eA*eA) [compound 400350] | 10-20%
4. 400349 (antisense e[5mC]*eT*dG*dG*dA*dG*d[5mC]*dA*dG*d[5mC]*dT*d[5mC]*eA*eG) [compound 400349] | 10-20%
5. 400358 (antisense eA*eT*dG*dG*d[5mC]*dA*dG*d[5mC]*dA*dG*dG*dA*eA*eG) [compound 400358] | 10-20%

So what's the measured % Inhibition Range for this one? 400309 (antisense e[5mC]*e[5mC]*d[5mC]*dG*dG*d[5mC]*d[5mC]*dG*d[5mC]*dT*dG*dA*e[5mC]*e[5mC]) [compound 400309]
40-50%

So what's the measured % Inhibition Range for this one? 400352 (antisense e[5mC]*eA*d[5mC]*d[5mC]*d[5mC]*dT*d[5mC]*dA*d[5mC]*d[5mC]*d[5mC]*d[5mC]*e[5mC]*eA) [compound 400352]
20-30%

So what's the measured % Inhibition Range for this one? 400366 (antisense eG*e[5mC]*dT*d[5mC]*d[5mC]*dG*dG*d[5mC]*dA*dG*d[5mC]*dA*eG*eA) [compound 400366]
10-20%

So what's the measured % Inhibition Range for this one? 400307 (antisense e[5mC]*eG*dG*d[5mC]*d[5mC]*dG*d[5mC]*dT*dG*dA*d[5mC]*d[5mC]*eA*e[5mC]) [compound 400307]
70-80%

So what's the measured % Inhibition Range for this one? 400306 (antisense e[5mC]*eT*dG*dT*d[5mC]*dA*d[5mC]*dA*d[5mC]*dT*dT*dG*e[5mC]*eT) [compound 400306]
40-50%

So what's the measured % Inhibition Range for this one? 400351 (antisense eA*e[5mC]*d[5mC]*d[5mC]*dT*d[5mC]*dA*d[5mC]*d[5mC]*d[5mC]*d[5mC]*d[5mC]*eA*eA) [compound 400351]
10-20%

So what's the measured % Inhibition Range for this one? 400367 (antisense eG*eG*d[5mC]*dT*d[5mC]*d[5mC]*dG*dG*d[5mC]*dA*dG*d[5mC]*eA*eG) [compound 400367]
10-20%

So what's the measured % Inhibition Range for this one? 400360 (antisense eG*e[5mC]*dA*dT*dG*dG*d[5mC]*dA*dG*d[5mC]*dA*dG*eG*eA) [compound 400360]
30-40%

So what's the measured % Inhibition Range for this one? 400301 (antisense e[5mC]*eG*d[5mC]*dT*d[5mC]*d[5mC]*dA*dG*dG*dT*dT*d[5mC]*e[5mC]*eA) [compound 400301]
20-30%

---

System: PTP1B mRNA
Assay: Dose response for human PTP1B in HuVEC cells, PPS 198 and PPS 3000 (Tables 86, 87)
Format: cell-based
Conditions: PPS 3000, 10.0 nM
Strand notation (5' to 3'): a small letter for the sugar, then the base; units joined by * are phosphorothioate-linked, units joined directly phosphodiester-linked; [ ] holds rarer units or linkages, { } end groups; capitals alone tell only the bases. e = 2'-O-(2-methoxyethyl) (MOE); [5mC] = 5-methylcytosine; d = 2'-deoxy (DNA)
// reported % Inhibition for each item listed
API: value field is a number in %; no unit string.

1) 399208 (eA*eG*d[5mC]*dT*d[5mC]*dG*d[5mC]*dT*dA*d[5mC]*d[5mC]*dT*e[5mC]*eT; antisense) [compound 399208] | 85
2) 398173 (e[5mC]*dA*dG*d[5mC]*d[5mC]*dT*dG*dG*dG*d[5mC]*dA*e[5mC]) [compound 398173] | 80
3) 398112 (e[5mC]*eA*dG*d[5mC]*d[5mC]*dT*dG*dG*d[5mC]*dA*d[5mC]*d[5mC]*eT*eA) [compound 398112] | 77
4) 399102 (eG*eA*dA*dG*dT*d[5mC]*dA*d[5mC]*dT*dG*dG*d[5mC]*eT*eT; antisense) [compound 399102] | 60
5) 398120 (eG*eT*dT*d[5mC]*dA*dA*dG*d[5mC]*dG*dG*d[5mC]*d[5mC]*eT*eA) [compound 398120] | 79

Give recorded % Inhibition with PTP1B mRNA for the following substance: 399315 (antisense eG*eG*d[5mC]*dA*dA*d[5mC]*dT*dT*d[5mC]*dA*dA*d[5mC]*e[5mC]*eT) [compound 399315]
71

Give recorded % Inhibition with PTP1B mRNA for the following substance: 399132 (eG*eG*dG*d[5mC]*dT*dG*dA*dG*dT*dG*dA*d[5mC]*e[5mC]*e[5mC]; antisense) [compound 399132]
76

---

System: PTP1B mRNA
Experiment: Dose response for human PTP1B in HuVEC cells, PPS 198 and PPS 3000 (Tables 86, 87)
Format: cell-based
Conditions: PPS 198, 1.11 nM
Strand notation (5' to 3'): a small letter for the sugar, then the base; units joined by * are phosphorothioate-linked, units joined directly phosphodiester-linked; [ ] holds rarer units or linkages, { } end groups; capitals alone tell only the bases. e = 2'-O-(2-methoxyethyl) (MOE); [5mC] = 5-methylcytosine; d = 2'-deoxy (DNA)
// reported % Inhibition for each item listed

Some solved cases for reference:
1) 398173 (e[5mC]*dA*dG*d[5mC]*d[5mC]*dT*dG*dG*dG*d[5mC]*dA*e[5mC]) [compound 398173] | 0%
2) 399276 (eG*eA*dG*dG*dT*dA*dT*d[5mC]*d[5mC]*d[5mC]*dA*dT*e[5mC]*eT; antisense) [compound 399276] | 0%

So what's the measured % Inhibition for this one? 398112 (e[5mC]*eA*dG*d[5mC]*d[5mC]*dT*dG*dG*d[5mC]*dA*d[5mC]*d[5mC]*eT*eA) [compound 398112]
1%

---

System: rat DGAT2 mRNA
Assay: Dose-dependent inhibition of DGAT2 in A10 cells (Tables 82, 83)
Format: cell-based
Conditions: 0.62 nM (Table 83)
Strand notation (5' to 3'): a small letter for the sugar, then the base; units joined by * are phosphorothioate-linked, units joined directly phosphodiester-linked; [ ] holds rarer units or linkages, { } end groups; capitals alone tell only the bases. e = 2'-O-(2-methoxyethyl) (MOE); [5mC] = 5-methylcytosine; d = 2'-deoxy (DNA)
experimental endpoint: percent inhibition of rat DGAT2 (%)
API: value field is a number in %; no unit string.

1) 372508 (antisense eA*eG*eT*dT*d[5mC]*d[5mC]*dT*dG*dG*dT*dG*dG*dT*e[5mC]*eA*eG) [compound 372508] | 0
2) 372500 (antisense eG*eT*eG*dT*dG*dT*d[5mC]*dT*dT*d[5mC]*dA*d[5mC]*d[5mC]*eA*eG*e[5mC]) [compound 372500] | 0

// below: percent inhibition of rat DGAT2 requested for another substance
So what's the measured percent inhibition of rat DGAT2 for this one? 372594 (antisense eA*e[5mC]*dA*dG*dA*dA*dG*dG*d[5mC]*dA*d[5mC]*d[5mC]*e[5mC]*eA) [compound 372594]
0

---

Tested on: rat DGAT2 mRNA
Experiment: Dose-dependent inhibition of DGAT2 in A10 cells (Tables 82, 83)
Format: cell-based
Settings: 200.0 nM (Table 82)
Strand notation (5' to 3'): a small letter for the sugar, then the base; units joined by * are phosphorothioate-linked, units joined directly phosphodiester-linked; [ ] holds rarer units or linkages, { } end groups; capitals alone tell only the bases. e = 2'-O-(2-methoxyethyl) (MOE); [5mC] = 5-methylcytosine; d = 2'-deoxy (DNA)
experimental endpoint: percent inhibition of DGAT2 (%)
API: value field is a number in %; no unit string.

1) 372618 (antisense eG*eT*dG*dG*dT*dA*d[5mC]*dA*dG*dG*dT*d[5mC]*eG*eA) [compound 372618] | 80
2) 372562 (antisense eG*eT*d[5mC]*dT*dT*dG*dG*dA*dG*dG*dG*d[5mC]*e[5mC]*eG) [compound 372562] | 75
3) 372568 (antisense eG*eA*d[5mC]*dA*d[5mC]*dT*dG*d[5mC]*dA*dG*dG*d[5mC]*e[5mC]*eA) [compound 372568] | 69
4) 372586 (antisense eG*eT*dT*d[5mC]*d[5mC]*dT*dG*dG*dT*dG*dG*dT*e[5mC]*eA) [compound 372586] | 77

// below: percent inhibition of DGAT2 requested for another substance
So what's the measured percent inhibition of DGAT2 for this one? 372602 (antisense e[5mC]*e[5mC]*dA*dG*dG*d[5mC]*dA*dT*dG*dG*dA*dG*e[5mC]*eT) [compound 372602]
76

Recorded values, source patent US8372967B2.
